FYI, the data here is from ChEMBL document CHEMBL1268982.

experiment: Inhibition of gamma-secretase-mediated amyloid beta-40 production
Measurement type: IC50 (nM)
Form entry: value (nM) — number only.

Here's what some known entries look like.
Problem: IC50 lookup needed for "CN1CCC12CCN(C(=O)OC1([C@H]3COC[C@@H](CC4CC4)N3S(=O)(=O)c3ccc(Cl)cc3)CC1)CC2" , thanks.
Solution: 2.6

Problem: Requested read-out: IC50. Entry: "CC(C)[C@@H]1COC[C@H](C2(OC(=O)N3CC[C@@H](O)C3)CC2)N1S(=O)(=O)c1ccc(Cl)cc1"
Solution: 18.9

Problem: Please give the measured IC50 for this compound: O=C(OC1([C@H]2COC[C@@H](CC3CC3)N2S(=O)(=O)c2ccc(Cl)cc2)CC1)N1CC2CC1CN2CCO (stereo partly drawn)
Solution: 3.6

Problem: Data request, read-out IC50, for "CC(C)[C@@H]1COC[C@H](C2(OC(=O)N3CC[C@H](O)C3)CC2)N1S(=O)(=O)c1ccc(Cl)cc1"
Solution: 17

Problem: Dear colleague, I am looking for the recorded IC50 of the following compound: "CC(C)[C@@H]1COC[C@H](C2(OC(=O)N3CCC(CO)CC3)CC2)N1S(=O)(=O)c1ccc(Cl)cc1"
Solution: 6.5

Problem: What value of IC50 has been reported for the following compound? "CC(C)(C)[C@@H]1COC[C@H](COC(=O)N2CCN(C(C)(C)CO)CC2)N1S(=O)(=O)c1ccc(Cl)cc1"
Solution: 34.7

Problem: Record request: IC50 value, item "O=C(OC1([C@H]2COC[C@@H](CC3CC3)N2S(=O)(=O)c2ccc(Cl)cc2)CC1)N1CC2CCC(C1)N2"
Solution: 0.8

More entries:
Problem: Please give the measured IC50 for this compound: "CC(C)(C)[C@@H]1COC[C@H](COC(=O)N2CCC(CO)CC2)N1S(=O)(=O)c1ccc(Cl)cc1"
Solution: 108

###

experiment: Inhibition of gamma-secretase-mediated amyloid beta-40 production
pIC50: −log10 of the molar value.
Is pIC50 at least 8? Then Fulfilled. If not, Not fulfilled.

Field: example entries. Status: answers known.
Problem: Evaluate "CN1CCN(C(=O)OC2([C@H]3COC[C@@H](CC4CC4)N3S(=O)(=O)c3ccc(Cl)cc3)CC2)CC1=O" : pIC50 at minimum 8?
Solution: Fulfilled

Problem: Has "CC[C@H]1CN(C(C)=O)[C@H](C)CN1C(=O)OC1([C@H]2COC[C@@H](CC3CC3)N2S(=O)(=O)c2ccc(Cl)cc2)CC1" a recorded pIC50 greater than or equal to 8?
Solution: Not fulfilled

Problem: State whether the measured pIC50 reaches 8, counting equality as reaching it, for "O=C(OC1([C@H]2COC[C@@H](CC3CC3)N2S(=O)(=O)c2ccc(Cl)cc2)CC1)N1CC2CCC(C1)N2CCO"
Solution: Fulfilled

Problem: # bool: pIC50 of "CCNC(=O)N1C2CCC1CN(C(=O)OC1([C@H]3COC[C@@H](CC4CC4)N3S(=O)(=O)c3ccc(Cl)cc3)CC1)C2" >= 8
Solution: Fulfilled

Problem: Decide: pIC50 of "CC1([C@@H]2COC[C@H](COC(=O)N3CCN(C(C)(C)CO)CC3)N2S(=O)(=O)c2ccc(Cl)cc2)CC1" >= 8?
Solution: Not fulfilled

New cases:
Problem: # bool: pIC50 of "O=C(OC1([C@H]2COC[C@@H](CC3CC3)N2S(=O)(=O)c2ccc(Cl)cc2)CC1)N1CCC2(CCN2)CC1" >= 8
Solution: Fulfilled

Problem: Test whether the compound "CC1([C@@H]2COC[C@H](COC(=O)N3CCC(CO)CC3)N2S(=O)(=O)c2ccc(Cl)cc2)CC1" records pIC50 of 8 or higher.
Solution: Not fulfilled

Problem: Threshold query (pIC50 >= 8) on "CC(=O)N1C2CCC1CN(C(=O)OC1([C@H]3COC[C@@H](CC4CC4)N3S(=O)(=O)c3ccc(Cl)cc3)CC1)C2"
Solution: Fulfilled

###

test: AUC (0 to 6 hrs) in rat at 10 mg/kg, po; format: ADME, organism-based; set-up: time < 6 hr, dose 10 mg/kg, route oral; conditions: plasma
Lab note: cut-off is 0.9 µM·h. Strictly less in AUC(0-t) at 6 h is yes (1). Exactly 0.9 µM·h or more is no (0).

Problem: Consider "CC(C)[C@@H]1COC[C@H](C2(OC(=O)N3CC[C@@H](O)C3)CC2)N1S(=O)(=O)c1ccc(Cl)cc1" . Does its AUC(0-t) at 6 h lie strictly below 0.9 µM·h?
Solution: yes (1)

Problem: Dear colleague, could you confirm whether AUC(0-t) at 6 h of "C[C@@H]1CN(C(=O)OC2([C@H]3COC[C@@H](CC4CC4)N3S(=O)(=O)c3ccc(Cl)cc3)CC2)C[C@H](C)N1CCO" falls below 0.9 µM·h? Thanks.
Solution: no (0)

Problem: Does the reported AUC(0-t) at 6 h of "O=C(OC1([C@H]2COC[C@@H](CC3CC3)N2S(=O)(=O)c2ccc(Cl)cc2)CC1)N1CC2CCC(C1)N2CCO" stay below 0.9 µM·h?
Solution: no (0)

Problem: Check if AUC(0-t) at 6 h falls below 0.9 µM·h for "CC(=O)N1C2CCC1CN(C(=O)OC1([C@H]3COC[C@@H](CC4CC4)N3S(=O)(=O)c3ccc(Cl)cc3)CC1)C2" .
Solution: yes (1)

Problem: Just wondering, is AUC(0-t) at 6 h of CC(C)[C@@H]1COC[C@H](C2(OC(=O)N3CC4CNCC4C3)CC2)N1S(=O)(=O)c1ccc(Cl)cc1 (some centres not stated) below 0.9 µM·h?
Solution: no (0)

Lab note: next compound to report on.
Problem: A record lists "CN1CCN(C(=O)OC2([C@H]3COC[C@@H](CC4CC4)N3S(=O)(=O)c3ccc(Cl)cc3)CC2)CC1=O" . Is its AUC(0-t) at 6 h below 0.9 µM·h?
Solution: no (0)

###

molecular target: Cytochrome P450 3A4 (Homo sapiens, UniProt P08684)
Sequence (P08684 whole entry): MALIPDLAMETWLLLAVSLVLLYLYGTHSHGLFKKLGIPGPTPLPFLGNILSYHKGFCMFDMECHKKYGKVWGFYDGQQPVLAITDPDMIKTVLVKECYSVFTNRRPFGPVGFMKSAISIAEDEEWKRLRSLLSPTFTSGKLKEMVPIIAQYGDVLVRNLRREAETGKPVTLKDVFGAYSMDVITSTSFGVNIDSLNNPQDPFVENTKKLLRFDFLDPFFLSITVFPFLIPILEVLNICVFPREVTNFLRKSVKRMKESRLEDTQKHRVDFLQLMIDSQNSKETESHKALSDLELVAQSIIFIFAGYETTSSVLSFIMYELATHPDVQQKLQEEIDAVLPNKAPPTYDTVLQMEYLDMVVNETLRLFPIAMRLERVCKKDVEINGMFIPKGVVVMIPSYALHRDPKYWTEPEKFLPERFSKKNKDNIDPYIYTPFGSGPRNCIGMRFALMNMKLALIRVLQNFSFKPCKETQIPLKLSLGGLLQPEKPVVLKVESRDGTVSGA
Item-by-item account of pIC50
The value called pIC50 is obtained by taking minus log10 of the concentration in mol/L.

Problem: Could you share which pIC50 value was measured for "O=C(OC1([C@H]2COC[C@@H](CC3CC3)N2S(=O)(=O)c2ccc(Cl)cc2)CC1)N1CCC2(CCN2)CC1" ?
Solution: 4.95

Problem: Quick check: pIC50 of "CN1CCC12CCN(C(=O)OC1([C@H]3COC[C@@H](CC4CC4)N3S(=O)(=O)c3ccc(Cl)cc3)CC1)CC2" ?
Solution: 4.52

Problem: Reported pIC50, compound "O=C(OC1([C@H]2COC[C@@H](CC3CC3)N2S(=O)(=O)c2ccc(Cl)cc2)CC1)N1CC2CCC(C1)N2" : ____
Solution: 6.10

Continuing:
Problem: Could you share which pIC50 value was measured for "O=C(OC1([C@H]2COC[C@@H](CC3CC3)N2S(=O)(=O)c2ccc(Cl)cc2)CC1)N1CC2CCC(C1)N2CCO" ?
Solution: 5.64

Problem: Quick one: pIC50 of "CC(C)[C@@H]1COC[C@H](C2(OC(=O)N3CCC(CO)CC3)CC2)N1S(=O)(=O)c1ccc(Cl)cc1" ?
Solution: 4.86

Problem: Requested field: pIC50. Item: "CC(C)[C@@H]1COC[C@H](C2(OC(=O)N3CC[C@@H](O)C3)CC2)N1S(=O)(=O)c1ccc(Cl)cc1"
Solution: 4.87

Problem: Entry "CC(C)(C)[C@@H]1COC[C@H](COC(=O)N2CCC(CO)CC2)N1S(=O)(=O)c1ccc(Cl)cc1" : reported pIC50 = ?
Solution: 5.15

Problem: Fill blank: measured pIC50 of the compound "CC1([C@@H]2COC[C@H](COC(=O)N3CCC(CO)CC3)N2S(=O)(=O)c2ccc(Cl)cc2)CC1" is ____.
Solution: 5.26

###

assay: AUC (0 to 6 hrs) in rat at 10 mg/kg, po; type: ADME, organism-based; set-up: time < 6 hr, dose 10 mg/kg, route oral; conditions: plasma
Measurement type: AUC(0-t) at 6 h (µM·h)
// return numeric value only (unit: µM·h, not printed)

Worked set:
Problem: Requested field: AUC(0-t) at 6 h. Item: "CC(C)[C@@H]1COC[C@H](C2(OC(=O)N3CC4CCC(C3)N4)CC2)N1S(=O)(=O)c1ccc(Cl)cc1"
Solution: 4.97

Problem: # lookup: AUC(0-t) at 6 h of O=C(OC1([C@H]2COC[C@@H](CC3CC3)N2S(=O)(=O)c2ccc(Cl)cc2)CC1)N1CC2CC1CN2CCO (stereo partly drawn)
Solution: 1.35

Problem: Need AUC(0-t) at 6 h of "CC(C)[C@@H]1COC[C@H](C2(OC(=O)N3CCNCC3)CC2)N1S(=O)(=O)c1ccc(Cl)cc1" , thanks.
Solution: 3.93

Problem: Can you share its AUC(0-t) at 6 h? I mean this molecule: "O=C(OC1([C@H]2COC[C@@H](CC3CC3)N2S(=O)(=O)c2ccc(Cl)cc2)CC1)N1CCC2(CCN2)CC1"
Solution: 1.34

Problem: Consider the molecule shown here: "O=C1CC2(CCN(C(=O)OC3([C@H]4COC[C@@H](CC5CC5)N4S(=O)(=O)c4ccc(Cl)cc4)CC3)CC2)N1" What is its recorded AUC(0-t) at 6 h?
Solution: 0.037

Problem: Name the reported AUC(0-t) at 6 h value associated with the molecule "CC(C)(CO)N1CCN(C(=O)OC2([C@H]3COC[C@@H](CC4CC4)N3S(=O)(=O)c3ccc(Cl)cc3)CC2)CC1"
Solution: 0.077

Problem: Entry "O=C(OC1([C@H]2COC[C@@H](CC3CC3)N2S(=O)(=O)c2ccc(Cl)cc2)CC1)N1CC2CCC(C1)N2" has what AUC(0-t) at 6 h?
Solution: 4.58

# next molecule below
Problem: Requested field: AUC(0-t) at 6 h. Item: "CCNC(=O)N1C2CCC1CN(C(=O)OC1([C@H]3COC[C@@H](CC4CC4)N3S(=O)(=O)c3ccc(Cl)cc3)CC1)C2"
Solution: 0.06
